Provide the recorded OD450 for the entries that follow.
Biological target: T1, human MSLN-FL-his protein (human, UniProt Q13421 296-580)
T1 construct: Made in HEK293E cells, purified on nickel column; it is put last here; also called human MSLN full-length protein; hMSLN-FL-his; not shown: His tag
T1 sequence (Q13421 other isoform, or with tags, fused parts or gaps): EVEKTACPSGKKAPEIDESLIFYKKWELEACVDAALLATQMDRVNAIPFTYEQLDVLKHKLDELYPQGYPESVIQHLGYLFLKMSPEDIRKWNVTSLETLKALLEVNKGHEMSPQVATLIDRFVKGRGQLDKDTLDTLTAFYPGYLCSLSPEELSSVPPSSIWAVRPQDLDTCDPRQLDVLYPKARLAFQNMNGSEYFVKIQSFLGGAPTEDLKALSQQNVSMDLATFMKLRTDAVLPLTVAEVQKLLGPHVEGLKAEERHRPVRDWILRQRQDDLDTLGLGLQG
Assay: ELISA on coated antigen, antibody 0.001 nM
Answer format: numeric, OD implied, no suffix.

Qu. Dear colleague, I am looking for the recorded OD450 of the following binder: S009-F8-18.9 (antibody, human IgG1, kappa, V domains shown, Human-murine chimeric antibody, human IgG1 heavy and kappa light constant regions) VH: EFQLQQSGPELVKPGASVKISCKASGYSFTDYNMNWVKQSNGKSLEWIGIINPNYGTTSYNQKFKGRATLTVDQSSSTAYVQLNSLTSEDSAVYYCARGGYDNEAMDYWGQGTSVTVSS VL: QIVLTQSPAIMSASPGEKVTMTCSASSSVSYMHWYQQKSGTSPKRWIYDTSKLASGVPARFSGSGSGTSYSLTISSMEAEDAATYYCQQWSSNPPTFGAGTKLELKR
Ans. 0.15

Qu. Dear colleague, I am looking for the recorded OD450 of the following binder: S009-F8-8.22 (antibody, human IgG1, kappa, V domains shown, Human-murine chimeric antibody, human IgG1 heavy and kappa light constant regions) VH: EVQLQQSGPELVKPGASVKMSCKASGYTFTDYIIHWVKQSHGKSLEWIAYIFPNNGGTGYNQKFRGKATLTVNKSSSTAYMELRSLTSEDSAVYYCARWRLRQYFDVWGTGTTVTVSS VL: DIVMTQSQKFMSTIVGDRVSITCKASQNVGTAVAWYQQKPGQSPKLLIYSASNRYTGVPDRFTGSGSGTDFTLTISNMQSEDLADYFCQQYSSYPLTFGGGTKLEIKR
Ans. 0.23

Qu. Dear colleague, I am looking for the recorded OD450 of the following binder: S009-F8-28.23 (antibody, human IgG1, kappa, V domains shown, Human-murine chimeric antibody, human IgG1 heavy and kappa light constant regions) VH: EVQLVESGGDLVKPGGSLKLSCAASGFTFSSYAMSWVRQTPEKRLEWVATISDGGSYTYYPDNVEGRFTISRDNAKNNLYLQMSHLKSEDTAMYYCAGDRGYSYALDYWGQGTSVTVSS VL: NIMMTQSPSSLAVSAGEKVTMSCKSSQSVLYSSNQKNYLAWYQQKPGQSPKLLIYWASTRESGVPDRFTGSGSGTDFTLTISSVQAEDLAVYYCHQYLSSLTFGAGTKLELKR
Ans. 0.08
